# assayed-system: rat GHS-R (GHS receptor) expressed on CHO-GHSR62 cells (rat, UniProt O08725 1-364)
# Sequence (O08725 whole entry): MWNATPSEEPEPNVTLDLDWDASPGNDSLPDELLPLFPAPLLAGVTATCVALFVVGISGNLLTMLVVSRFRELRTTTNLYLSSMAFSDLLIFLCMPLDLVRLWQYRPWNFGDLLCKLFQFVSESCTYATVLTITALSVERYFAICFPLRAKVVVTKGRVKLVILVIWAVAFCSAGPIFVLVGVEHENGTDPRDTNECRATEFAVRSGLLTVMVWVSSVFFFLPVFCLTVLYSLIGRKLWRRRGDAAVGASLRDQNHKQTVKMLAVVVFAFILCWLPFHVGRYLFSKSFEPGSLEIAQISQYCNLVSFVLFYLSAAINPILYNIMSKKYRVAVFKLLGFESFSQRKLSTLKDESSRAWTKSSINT
# test-summary: cell-based or functional assay
value-kind: Activity EC50 (nM)
The figure you give is taken to be in nM; do not add the unit.

Here is how some binders turned out for Activity EC50.
1) GSVFLSPEHQRVQQRKESKKPPAKLQPR [[Val^3]-hGhrelin] = 1600
2) GSLFLSPEHQRVQQRKESKKPPAKLQPR [[Leu^3]-hGhrelin] = 4400
3) GSWFLSPEHQRVQQRKESKKPPAKLQPR [[Trp^3]-hGhrelin] = 31
4) GSFFLSPEHQRVQQRKESKKPPAKLQPR [[Phe^3]-hGhrelin] = 2000

Consider the record given below.
Please fill in: Activity EC50 reported for GSKFLSPEHQRVQQRKESKKPPAKLQPR [[Lys^3]-hGhrelin] = 120

This collection of values is drawn from patent US20090170763A1.
